Values were extracted from paper PMC9022596.

Tested on: Staphylococcus aureus PB0203
Construct: PB0203
experimental-details: microbe, parasite or virus in culture
Set-up: Broth microdilution MIC in cation-adjusted MHB-Ca2+, growth inhibition per EUCAST reading
experimental-context: PB0203, 16 h, replicate 2
Please provide measured MIC for the entries that follow.
One number for each entry, in µg/mL.

[[record]]
compound_string = "CC(=O)NC[C@H]1CN(c2ccc(N3CCOCC3)c(F)c2)C(=O)O1"
observed_result = 4

[[record]]
compound_string = "CN[C@H](CC(C)C)C(=O)N[C@H]1C(=O)N[C@@H](CC(N)=O)C(=O)N[C@H]2C(=O)N[C@H]3C(=O)N[C@H](C(=O)N[C@H](C(=O)O)c4cc(O)cc(O)c4-c4cc3ccc4O)[C@H](O)c3ccc(c(Cl)c3)Oc3cc2cc(c3O[C@@H]2O[C@H](CO)[C@@H](O)[C@H](O)[C@H]2O[C@H]2C[C@](C)(N)[C@H](O)[C@H](C)O2)Oc2ccc(cc2Cl)[C@H]1O"
observed_result = 2

[[record]]
compound_string = "CCO/N=C(\\C(=O)N[C@@H]1C(=O)N2C(C(=O)[O-])=C(Sc3nc(-c4cc[n+](C)cc4)cs3)CS[C@H]12)c1nsc(N)n1"
observed_result = 0.5


For record CCCCCCCCCC(=O)N[C@@H](Cc1c[nH]c2ccccc12)C(=O)N[C@H](CC(N)=O)C(=O)N[C@@H](CC(=O)O)C(=O)N[C@@H]1C(=O)NCC(=O)N[C@@H](CCCN)C(=O)N[C@@H](CC(=O)O)C(=O)N[C@H](C)C(=O)N[C@@H](CC(=O)O)C(=O)NCC(=O)N[C@H](CO)C(=O)N[C@@H]([C@H](C)CC(=O)O)C(=O)N[C@@H](CC(=O)c2ccccc2N)C(=O)O[C@@H]1C the listed MIC is 1
